Substrate: O=C(O)C=C(O)C(=O)O
Assay: purified protein
Conditions: pH 7.5, 22 °C, 10 mM potassium phosphate, 0.3 mM NADH, malate dehydrogenase, OAA added in dry acetone
TEST READOUT: Vmax (µmol/min/mg)
Enter your answer as a number in µmol/min/mg; do not include the unit.

Problem: # query: Vmax of entry Hs FAHD2A (Homo sapiens) (protein) AAQLPVLPRSEVTFLAPVTRPDKVVCVGMNYVDHCKEQNVPVPKEPIIFSKFASSIVGPYDEVVLPPQSQEVDWEVELAVVIGKKGKHIKATDAMAHVAGFTVAHDVSARDWQMRRNGKQWLLGKTFDTFCPLGPALVTKDSVADPHNLKICCRVNGEVVQSGNTNQMVFKTEDLIAWVSQFVTFYPGDVILTGTPPGVGVFRKPPVFLKKGDEVQCEIEELGVIINKVV
Solution: 22.2
